- PROTOCOL: Pharmacokinetics in rats
- Assay type: in vivo, rat
- DETAILS: rat, po; male SD rats, 5 mg/kg orally by gavage, plasma
OUTCOME MEASURE: AUC(0-t) (ng·h/mL)

Worked cases, answers included:
>>> value("Cc1cc2cc(n1)-c1cnc(F)cc1OCCC[C@@H](C)Cn1c(nc3ccc(N4CCC5(CC4)CCN(C4COC4)CC5)cc31)NC2=O")
1840
>>> value("Cc1cc2cc(n1)-c1cnn(C)c1OCCC[C@@H](C)CN1/C(=N/C2=O)Nc2ccc(CN3CCC4(CC3)COC4)cc21 [compound 2, reference compound]")
132
>>> value("CO[C@@H]1CCC(N2CCC3(CCN(c4ccc5nc6n(c5c4)CCCCCOc4ccncc4-c4cc(cc(C)n4)C(=O)N6)CC3)CC2)C[C@@H]1F (stereo partly shown)")
3390

1 = Cc1cc2cc(n1)-c1cnccc1OCCCCCn1c(nc3ccc(N4CCC5(CC4)CCN(C4COC4)CC5)cc31)NC2=O
2 = Cc1cc2cc(n1)-c1cnn(C)c1OCCC[C@@H](C)CN1/C(=N/C2=O)Nc2ccc(CN3CCN(C)CC3)cc21 [compound 1, reference compound]
3 = Cc1cc2cc(n1)-c1cnccc1OCCC[C@@H](C)Cn1c(nc3cc(F)c(N4CCC5(CC4)CCN(C4COC4)CC5)cc31)NC2=O
4 = Cc1cc2cc(n1)-c1cnccc1OCCC[C@@H](C)Cn1c(nc3ccc(N4CCC5(CC4)CCN(C4COC4)CC5)cc31)NC2=O
List by increasing AUC(0-t). // ordering of labels required in reply 2, 1, 3, 4
(2: 96 ng·h/mL, 1: 917 ng·h/mL, 3: 1700 ng·h/mL, 4: 2590 ng·h/mL)

----------
- MEASUREMENT TARGET: Ba/F3 (EGFR L858R/C797S) (Homo sapiens, UniProt P00533, C797S/L858R, cells depend on it)
- Sequence (P00533 whole entry C797S/L858R): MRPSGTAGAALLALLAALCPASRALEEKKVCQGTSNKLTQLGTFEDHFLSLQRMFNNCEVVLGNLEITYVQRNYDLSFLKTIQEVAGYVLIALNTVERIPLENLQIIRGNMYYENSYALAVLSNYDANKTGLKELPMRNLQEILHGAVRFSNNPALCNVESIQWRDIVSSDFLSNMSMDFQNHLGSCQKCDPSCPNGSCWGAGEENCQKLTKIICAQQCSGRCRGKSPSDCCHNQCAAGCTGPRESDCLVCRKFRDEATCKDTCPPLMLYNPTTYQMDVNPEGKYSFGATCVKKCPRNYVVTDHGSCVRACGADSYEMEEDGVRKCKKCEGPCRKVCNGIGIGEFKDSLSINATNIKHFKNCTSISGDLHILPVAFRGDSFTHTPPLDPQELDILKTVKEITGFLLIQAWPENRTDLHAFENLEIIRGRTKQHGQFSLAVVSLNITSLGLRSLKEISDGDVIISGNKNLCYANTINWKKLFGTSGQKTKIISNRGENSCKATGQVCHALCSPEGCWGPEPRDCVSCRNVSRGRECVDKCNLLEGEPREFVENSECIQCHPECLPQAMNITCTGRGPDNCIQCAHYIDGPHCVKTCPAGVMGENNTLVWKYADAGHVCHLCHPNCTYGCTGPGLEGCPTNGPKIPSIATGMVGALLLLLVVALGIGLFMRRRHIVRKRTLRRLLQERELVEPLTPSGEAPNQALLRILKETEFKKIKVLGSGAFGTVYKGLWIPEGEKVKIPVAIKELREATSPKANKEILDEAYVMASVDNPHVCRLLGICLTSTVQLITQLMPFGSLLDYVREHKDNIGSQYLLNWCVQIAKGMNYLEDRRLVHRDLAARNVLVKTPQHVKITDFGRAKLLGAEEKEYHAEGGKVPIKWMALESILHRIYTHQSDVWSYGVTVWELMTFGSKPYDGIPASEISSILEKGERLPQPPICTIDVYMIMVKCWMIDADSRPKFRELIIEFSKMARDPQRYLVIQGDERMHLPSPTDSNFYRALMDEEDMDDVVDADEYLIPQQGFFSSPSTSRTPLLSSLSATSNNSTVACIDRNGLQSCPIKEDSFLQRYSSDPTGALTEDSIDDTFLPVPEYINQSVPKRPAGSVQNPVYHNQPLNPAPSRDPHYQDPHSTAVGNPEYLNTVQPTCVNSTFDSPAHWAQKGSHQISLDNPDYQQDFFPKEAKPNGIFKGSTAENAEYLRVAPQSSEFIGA
- PROTOCOL: Cell proliferation inhibitory activity assay, Ba/F3 EGFR L858R/C797S
- Type: cell-based
- DETAILS: cell proliferation inhibition, 72 hours, luminescence; read-out: Ba/F3 cells overexpressing different EGFR mutations IC50 (nM) L858R/C797S
OUTCOME MEASURE: GI50 (nM)

P = Cc1cc2cc(n1)-c1cnccc1OCCC[C@@H](C)Cn1c(nc3ccc(N4CCC5(CC4)CCN(C4COC4C)CC5)cc31)NC2=O (stereo partly drawn)
Q = COCCCN1CCC2(CC1)CCN(c1ccc3nc4n(c3c1)C[C@H](C)CCCOc1cc(F)ncc1-c1cc(cc(C)n1)C(=O)N4)CC2
R = Cc1cc2cc(n1)-c1cnccc1OCCCCCn1c(nc3ccc(N4CCC5(CC4)CCN(C4CC4)CC5)cc31)NC2=O
S = Cc1cc2cc(n1)-c1cnccc1OCCC[C@@H](C)Cn1c(nc3cc(F)c(N4CCC5(CCN(C)CC5)CC4)cc31)NC2=O
Thanks in advance: please rank these 4 entries by GI50, highest to lowest. // ordering of labels required in reply Q, R, P, S

A = Cc1cc2cc(n1)-c1cnccc1OCCCCCn1c(nc3ccc(N4CCC5(CCN(CCN(C)C)CC5)CC4)cc31)NC2=O
B = Cc1cc2cc(n1)-c1cnccc1OCCCCCn1c(nc3cc(F)c(N4CCC5(CC4)CCN(C4COC4)CC5)cc31)NC2=O
Which has the higher GI50, A or B ? Answer with the label corresponding to your selection. A
(A: 21 nM, B: 2 nM)

----------
- PROTOCOL: Pharmacokinetics in mice
- Assay type: in vivo, mouse
- DETAILS: mouse, po; female BALB/c mice, 5 mg/kg orally by gavage, plasma
OUTCOME MEASURE: half-life (h)

>>> value("Cc1cc2cc(n1)-c1cnccc1OCCC[C@@H](C)Cn1c(nc3ccc(N4CCC5(CC4)CCN(C4COC4)CC5)cc31)NC2=O [Example 4]")
5.28
>>> value("Cc1cc2cc(n1)-c1cnccc1OCCCCCn1c(nc3ccc(N4CCC5(CC4)CCN(C4COC4)CC5)cc31)NC2=O [Example 52]")
20.1

A = Cc1cc2cc(n1)-c1cnccc1OCCC[C@@H](C)Cn1c(nc3cc(F)c(N4CCC5(CC4)CCN(C4COC4)CC5)cc31)NC2=O [Example 6]
B = Cc1cc2cc(n1)-c1cnn(C)c1OCCC[C@@H](C)CN1/C(=N/C2=O)Nc2ccc(CN3CCN(C)CC3)cc21 [compound 1, reference compound]
For the pair A and B , which member has the lower half-life number? Answer with the label corresponding to your selection. B
(B: 4.22 h, A: 21.5 h)

----------
- PROTOCOL: Metabolic stability of liver microsomes, rat
- Format: in vitro ADME
- DETAILS: NADPH, 0-45 min, read-out: CLint(μL/min/mg protein) Rat
OUTCOME MEASURE: microsomal CLint (µL/min/mg)

Worked cases, answers included:
>>> value("Cc1cc2cc(n1)-c1cnccc1OCCCCCn1c(nc3ccc(N4CCC5(CCN(C)CC5)CC4)cc31)NC2=O [Example 1]")
14.2
>>> value("COCCCN1CCC2(CC1)CCN(c1ccc3nc4n(c3c1)C[C@H](C)CCCOc1ccncc1-c1cc(cc(C)n1)C(=O)N4)CC2 [Example 77]")
6.7
>>> value("Cc1cc2cc(n1)-c1cnccc1OCCC[C@@H](C)Cn1c(nc3ccc(N4CCC5(CC4)CCN(C4COC4)CC5)cc31)NC2=O [Example 4]")
5.6

A = Cc1cc2cc(n1)-c1cnccc1OCCCCCn1c(nc3cc(C)c(N4CCC5(CCN(C)CC5)CC4)cc31)NC2=O [Example 13]
B = Cc1cc2cc(n1)-c1cnccc1OCCCCCn1c(nc3ccc(N4CCC5(CCN(CC(C)(C)F)CC5)CC4)cc31)NC2=O [Example 78]
C = Cc1cc2cc(n1)-c1cnccc1OCCC[C@@H](C)Cn1c(nc3cc(F)c(N4CCC5(CC4)CCN(C4COC4)CC5)cc31)NC2=O [Example 6]
D = Cc1cc2cc(n1)-c1cnccc1OCCCCCn1c(nc3cc(C)c(N4CCC5(CCN(CCF)CC5)CC4)cc31)NC2=O [Example 59]
List by increasing microsomal CLint. // ordering of labels required in reply C, A, B, D

----------
- System: A431 cell carrying EGFR WT
- PROTOCOL: Cell proliferation inhibitory activity assay, A431
- Type: cell-based
- DETAILS: Homo sapiens, A-431; cell proliferation inhibition, 72 hours, luminescence
OUTCOME MEASURE: IC50 (nM)

>>> value("COCCCN1CCC2(CC1)CCN(c1ccc3nc4n(c3c1)C[C@H](C)CCCOc1cc(F)ncc1-c1cc(cc(C)n1)C(=O)N4)CC2")
1470

1 = Cc1cc2cc(n1)-c1cnccc1OCCCCCn1c(nc3cc(F)c(N4CCC5(CCN(CCF)CC5)CC4)cc31)NC2=O
2 = Cc1cc2cc(n1)-c1cnccc1OCCCCCn1c(nc3ccc(N4CCC5(CCN(C)CC5)CC4)cc31)NC2=O
3 = COCCCN1CCC2(CC1)CCN(c1ccc3nc4n(c3c1)C[C@H](C)CCCOc1ccncc1-c1cc(cc(C)n1)C(=O)N4)CC2
Given 3 compounds, produce a descending ranking by IC50. // ordering of labels required in reply 2, 1, 3

----------
- PROTOCOL: Pharmacokinetics in rats
- Assay type: in vivo, rat
- DETAILS: rat, po; male SD rats, 5 mg/kg orally by gavage, plasma
OUTCOME MEASURE: half-life (min)

>>> value("Cc1cc2cc(n1)-c1cnccc1OCCCCCn1c(nc3ccc(N4CCC5(CC4)CCN(C4COC4)CC5)cc31)NC2=O")
744
>>> value("Cc1cc2cc(n1)-c1cnccc1OCCC[C@@H](C)Cn1c(nc3ccc(N4CCC5(CC4)CCN(C4COC4)CC5)cc31)NC2=O")
1650
>>> value("Cc1cc2cc(n1)-c1cnc(F)cc1OCCC[C@@H](C)Cn1c(nc3ccc(N4CCC5(CC4)CCN(C4COC4)CC5)cc31)NC2=O")
1130

a = Cc1cc2cc(n1)-c1cnn(C)c1OCCC[C@@H](C)CN1/C(=N/C2=O)Nc2ccc(CN3CCN(C)CC3)cc21 [compound 1, reference compound]
b = Cc1cc2cc(n1)-c1cnccc1OCCC[C@@H](C)Cn1c(nc3cc(F)c(N4CCC5(CC4)CCN(C4COC4)CC5)cc31)NC2=O
Which has the higher half-life, a or b ? Answer with the label corresponding to your selection. b

----------
- MEASUREMENT TARGET: Ba/F3 (EGFR L858R/C797S) (Homo sapiens, UniProt P00533, C797S/L858R, cells depend on it)
- PROTOCOL: Cell proliferation inhibitory activity assay, Ba/F3 EGFR L858R/C797S
- Type: cell-based
- DETAILS: cell proliferation inhibition, 72 hours, luminescence; read-out: Ba/F3 cells overexpressing different EGFR mutations IC50 (nM) L858R/C797S
- Method: Suspension cells Ba/F3 (EGFR. Dell9/T790M/C797S), Ba/F3 (EGFR L858R/T790M/C797S), Ba/F3 (EGFR Del19/C797S), and Ba/F3 (EGFR L858R/C797S) overexpressing different EGFR mutations were cultured in PRMI 1640 containing 10% FBS and 1% PS, and adherent cells A431 carrying EGFR WT were cultured in DMEM containing 10% FBS and 1% PS. […]
OUTCOME MEASURE: GI50 (nM)

Worked cases, answers included:
>>> value("Cc1cc2cc(n1)-c1cnccc1OCCC[C@@H](C)Cn1c(nc3ccc(N4CCC5(CC4)CCN(C4COC4(C)C)CC5)cc31)NC2=O (stereo partly drawn)")
17
>>> value("Cc1cc2cc(n1)-c1cnccc1OCCCCCn1c(nc3ccc(N4CCC5(CCN(CC(C)(C)F)CC5)CC4)cc31)NC2=O")
21

I = Cc1cc2cc(n1)-c1cnc(F)cc1OCCC[C@@H](C)Cn1c(nc3ccc(N4CCC5(CC4)CCN(C4COC4)CC5)cc31)NC2=O
II = Cc1cc2cc(n1)-c1cnccc1OCCC[C@@H](C)Cn1c(nc3cc(F)c(N4CCC5(CC4)CCN(C4COC4)CC5)cc31)NC2=O
III = COCCN1CCC2(CC1)CCN(c1ccc3nc4n(c3c1)CCCCCOc1ccncc1-c1cc(cc(C)n1)C(=O)N4)CC2
IV = COCCCN1CCC2(CC1)CCN(c1ccc3nc4n(c3c1)C[C@H](C)CCCOc1ccncc1-c1cc(cc(C)n1)C(=O)N4)CC2
Given 4 compounds, produce a descending ranking by GI50. // ordering of labels required in reply I, II, IV, III

From: patent US20250223300A1
